Data origin: ChEMBL document CHEMBL1833856

# Tgt: Cathepsin B (Homo sapiens)
# Test name: Reversible inhibition of human recombinant cathepsin B assessed as formation of fluorescent degradation product AMC using Z-Arg-Arg-AMC as substrate by Michaelis-Menten method
pKi: −log10 of the molar value.
Please mark label 1 if the recorded pKi is equal to or greater than 4, and label 0 if it falls below.

Study these solved cases before continuing.
O=c1nc(SCc2ccccc2)nc(SCC2CCCC2)[nH]1    label 1
O=c1nc(SCc2ccccc2)nc(SCc2ccccc2F)[nH]1    label 1
N#Cc1ccc(CSc2nc(SCc3ccccc3)nc(=O)[nH]2)c(F)c1    label 1
O=c1nc(SCc2ccccc2)nc(SCc2ccc(F)cc2)[nH]1    label 1
O=c1nc(SCc2ccccc2)nc(SCc2ccc(Cl)cc2)[nH]1    label 1
O=c1nc(SCc2ccccc2)nc(SCc2cccc(Cl)c2)[nH]1    label 1
O=c1nc(SCc2ccccc2)nc(SCc2ccccc2[N+](=O)[O-])[nH]1    label 1
COc1ccc(CSc2nc(SCc3ccccc3)nc(=O)[nH]2)cc1    label 1
O=c1nc(SCc2ccccc2)nc(SCC2CCC2)[nH]1    label 1
O=c1nc(SCc2ccccc2)nc(SCC2CCCCC2)[nH]1    label 1

Problem: Has O=c1nc(SCc2ccccc2)nc(SCc2cccc(F)c2)[nH]1 a recorded pKi greater than or equal to 4?
Result: label 1

Problem: Item O=C(O)CSc1nc(SCc2ccccc2)nc(=O)[nH]1 with pKi of 4 or above?
Result: label 0

Problem: Threshold query (pKi >= 4) on N#CCSc1nc(SCc2ccccc2)nc(=O)[nH]1
Result: label 0

Problem: Hi team, for COc1ccccc1CSc1nc(SCc2ccccc2)nc(=O)[nH]1 , is the recorded pKi at or above 4?
Result: label 1

Problem: Does O=c1nc(SCc2ccccc2)nc(SCc2ccc([N+](=O)[O-])cc2)[nH]1 have a reported pKi of at least 4?
Result: label 1

Problem: Entry O=c1nc(SCc2ccccc2)nc(SCC2CC2)[nH]1 : is its pKi no less than 4?
Result: label 0

Problem: Hi team, for CCCSc1nc(SCc2ccccc2)[nH]c(=O)n1 , is the recorded pKi at or above 4?
Result: label 0

Problem: Decide: is the reported value of pKi for COc1cccc(CSc2nc(SCc3ccccc3)nc(=O)[nH]2)c1 equal to or greater than 4?
Result: label 1

Problem: Decide: pKi of N#Cc1ccccc1CSc1nc(SCc2ccccc2)nc(=O)[nH]1 >= 4?
Result: label 1

----------
# Tgt: UniProtKB P07858
# Test name: Partial mixed-type inhibition of human recombinant cathepsin B assessed as formation of fluorescent degradation product AMC using Z-Arg-Arg-AMC as substrate by Michaelis-Menten method
Collected Ki values appear next to each entry.
Answer by giving the amount and then stating its unit.

Below are worked cases with known answers.
N#Cc1ccc(CSc2nc(SCc3ccccc3)nc(=O)[nH]2)c(F)c1    9.7 µM
COc1cccc(CSc2nc(SCc3ccccc3)nc(=O)[nH]2)c1    21.9 µM
COc1ccccc1CSc1nc(SCc2ccccc2)nc(=O)[nH]1    4.4 µM
COc1ccc(CSc2nc(SCc3ccccc3)nc(=O)[nH]2)cc1    10.3 µM
N#Cc1ccc(CSc2nc(SCc3ccccc3)nc(=O)[nH]2)cc1    10.8 µM

Problem: Query: Ki; subject: O=c1nc(SCc2ccccc2)nc(SCc2ccc([N+](=O)[O-])cc2)[nH]1
Result: 4 µM

Problem: For O=c1nc(SCc2ccccc2)nc(SCc2ccccc2[N+](=O)[O-])[nH]1 , what is its reported Ki?
Result: 6 µM
